Numbers sourced from patent EP0151110B1.

- measurementParameters: in vivo
Would you kindly list Tissue* toxicity limits in % for each of these compounds?
Give bare numbers, in %.

>  <compound>
CCCN1CCCC[C@H]1C(=O)Nc1c(C)cccc1C [L-N-n-propylpipecolic acid-2,6-xylidide]

>  <Tissue* toxicity limits in % [%]>
0.75

$$$$

Batch lookup, Tissue* toxicity limits in % per entry.
1. CCN1CCCCC1C(=O)Nc1c(C)cccc1C (racemic)
2. Cc1cccc(C)c1NC(=O)C1CCCCN1C (racemic)
3. CCCN1CCCCC1C(=O)Nc1c(C)cccc1C (racemic)

*A*
1. 3.0
2. 3.5
3. 1.5

###

- method: in vivo
- measurementParameters: mouse, iv, read-out: LD50** I.v. (intravenous) mg/kg/mouse
Please provide measured LD50 for the entries that follow.
Answers are plain numbers, in mg/kg.

>  <compound>
Cc1cccc(C)c1NC(=O)C1CCCCN1C (racemic)

>  <measure>
LD50

>  <unitInfo>
mg/kg

>  <recordedNumber>
40.3

$$$$

Read the next record carefully.
*Q* Look up LD50 for this compound: CCN1CCCCC1C(=O)Nc1c(C)cccc1C (racemic)
*A* 21
